Tested on: MATSS: scented mayweed (Matricaria chamomilla), pineappleweed (Matricaria matricarioides)
Experiment: Post-emergent Test III, herbicidal activity in wheat and barley
Type: in vivo
Details: probit analysis, dose for growth reduction of 50 percent, 21 days after application
result.type: GR50 MATSS

Read off the recorded GR50 MATSS for COC(=O)c1nc(-c2ccc(Br)c(F)c2F)cc(N)c1Cl [Compound 114]
>140 g ai/ha

Report GR50 MATSS, nothing else, for this compound: COC(=O)c1nc(-c2ccc(F)cc2)c(F)c(N)c1Cl [Compound 204]
>140 g ai/ha

Quickly give me recorded GR50 MATSS for COC(=O)c1nc(-c2ccc(OC(F)F)cc2)c(F)c(N)c1Cl [Compound 85]
88 g ai/ha

Supply measured GR50 MATSS of COC(=O)c1nc(-c2ccc(C(F)F)cc2)c(F)c(N)c1Cl [Compound 209] in your reply.
>140 g ai/ha
